Here the recorded pIC50 is given for each entry.
TEST_SYSTEM: AKT2 (Homo sapiens)
Construct: purchased Signal Chem
Sequence (P31751 whole entry): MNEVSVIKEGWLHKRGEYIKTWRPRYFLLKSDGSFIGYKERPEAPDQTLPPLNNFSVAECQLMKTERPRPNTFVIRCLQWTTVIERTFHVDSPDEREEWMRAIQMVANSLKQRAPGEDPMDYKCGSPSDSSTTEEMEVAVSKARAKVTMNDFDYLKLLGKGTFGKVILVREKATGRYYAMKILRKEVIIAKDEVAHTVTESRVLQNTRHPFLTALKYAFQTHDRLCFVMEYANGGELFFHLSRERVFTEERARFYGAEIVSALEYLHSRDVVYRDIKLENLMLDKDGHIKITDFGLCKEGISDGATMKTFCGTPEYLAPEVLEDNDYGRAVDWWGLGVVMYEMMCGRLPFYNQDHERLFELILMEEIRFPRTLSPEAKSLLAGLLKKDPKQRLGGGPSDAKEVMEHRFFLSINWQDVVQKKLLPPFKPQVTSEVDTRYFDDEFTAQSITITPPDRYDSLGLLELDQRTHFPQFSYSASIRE
PROTOCOL_NOTES: AKT2 biochemical kinase assay (FP iMAP)
RECORDED_CONDITIONS: read-out: AKT IC50, AKT2
Just the number, please; pIC50 means minus log10 of the concentration in mol/L.

Would you please look over these solved cases?
MOL: CCN1C(=O)COc2nc(-c3ccc([C@]4(N)C[C@@H](O)C4)cc3)c(-c3ccccc3)cc21
NUMERIC_RESULT: 7.05

MOL: NC1(c2ccc(-c3nc4c(cc3-c3ccccc3)NC(=O)CO4)cc2)CCC1
NUMERIC_RESULT: 5.48

Shifting focus to the compound that follows.
Task: Query the reported pIC50 for AKT2 (Homo sapiens); item: CN1C(=O)COc2nc(-c3ccc(C4(N)CCC4)cc3)c(-c3ccccc3)cc21
Output: 6.40

###

TEST_SYSTEM: AKT1 (Homo sapiens, UniProt P31749)
Construct: purchased Millipore
Sequence (P31749 whole entry): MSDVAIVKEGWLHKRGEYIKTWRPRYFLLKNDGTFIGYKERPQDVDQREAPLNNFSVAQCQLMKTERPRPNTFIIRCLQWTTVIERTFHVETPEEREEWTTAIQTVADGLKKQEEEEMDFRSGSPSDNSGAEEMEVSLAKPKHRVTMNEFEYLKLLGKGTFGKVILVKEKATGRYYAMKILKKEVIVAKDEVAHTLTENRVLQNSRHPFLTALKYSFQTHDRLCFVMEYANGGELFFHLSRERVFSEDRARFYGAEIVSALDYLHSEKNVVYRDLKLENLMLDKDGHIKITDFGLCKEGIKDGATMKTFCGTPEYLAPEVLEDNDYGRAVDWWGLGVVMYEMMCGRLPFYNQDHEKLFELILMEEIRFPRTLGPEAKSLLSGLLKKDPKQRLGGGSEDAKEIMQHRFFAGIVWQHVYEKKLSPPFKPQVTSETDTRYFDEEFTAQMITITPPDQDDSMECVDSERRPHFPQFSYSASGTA
PROTOCOL_NOTES: AKT1 biochemical kinase assay (FP iMAP)
RECORDED_CONDITIONS: ATP concentration 150 µM; read-out: IC50 vs. AKT1
VALUE_TYPE: IC50

Task: IC50 for CCN1C(=O)COc2nc(-c3ccc([C@]4(N)C[C@@H](O)C4)cc3)c(-c3ccccc3)cc21 [ALM301] ?
Output: 121 nM

###

TEST_SYSTEM: AKT1 (Homo sapiens)
Construct: purchased Millipore
PROTOCOL_NOTES: AKT1 biochemical kinase assay (FP iMAP)
RECORDED_CONDITIONS: full length AKT1; read-out: IC50 full length AKT1
VALUE_TYPE: pIC50
Just the number, please; pIC50 means minus log10 of the concentration in mol/L.

Task: pIC50 for CCN1C(=O)COc2nc(-c3ccc([C@]4(N)C[C@@H](O)C4)cc3)c(-c3ccccc3)cc21 ?
Output: 6.90

###

TEST_SYSTEM: AKT1 (Homo sapiens, UniProt P31749)
Construct: purchased Millipore
PROTOCOL_NOTES: AKT1 biochemical kinase assay (FP iMAP)
RECORDED_CONDITIONS: read-out: AKT IC50, AKT1
VALUE_TYPE: IC50

Would you please look over these solved cases?
MOL: CCN1C(=O)COc2nc(-c3ccc([C@]4(N)C[C@@H](O)C4)cc3)c(-c3ccccc3)cc21
IC50: 130 nM
//
MOL: NC1(c2ccc(-c3nc4c(cc3-c3ccccc3)NC(=O)CO4)cc2)CCC1
IC50: 2500 nM

Shifting focus to the molecule that follows.
Task: IC50 for CN1C(=O)COc2nc(-c3ccc(C4(N)CCC4)cc3)c(-c3ccccc3)cc21 ?
Output: 100 nM

###

TEST_SYSTEM: CYP 2C9 (Homo sapiens)
Sequence (P11712 whole entry): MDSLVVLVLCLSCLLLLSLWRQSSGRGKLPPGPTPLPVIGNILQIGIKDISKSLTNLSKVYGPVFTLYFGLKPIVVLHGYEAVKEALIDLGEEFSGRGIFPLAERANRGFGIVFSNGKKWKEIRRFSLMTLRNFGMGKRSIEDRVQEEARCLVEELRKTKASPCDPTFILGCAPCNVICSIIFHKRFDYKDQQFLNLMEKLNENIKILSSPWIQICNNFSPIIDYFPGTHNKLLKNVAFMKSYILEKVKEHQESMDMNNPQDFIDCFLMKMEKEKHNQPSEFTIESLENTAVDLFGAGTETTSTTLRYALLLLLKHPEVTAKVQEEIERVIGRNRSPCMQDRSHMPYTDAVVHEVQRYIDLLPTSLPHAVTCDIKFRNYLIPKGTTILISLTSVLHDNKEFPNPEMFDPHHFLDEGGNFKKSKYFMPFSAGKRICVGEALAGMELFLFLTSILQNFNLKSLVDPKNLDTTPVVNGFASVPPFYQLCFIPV
VALUE_TYPE: IC50 (µM)
Give the value in µM but do not write µM after it.

Task: IC50 for NC1(c2ccc(-c3nc4ccn5c(=O)[nH]nc5c4cc3-c3ccccc3)cc2)CCC1 [MK-2206, reference compound] ?
Output: 19

###

TEST_SYSTEM: AKT1 (Homo sapiens)
Construct: purchased Millipore
PROTOCOL_NOTES: AKT1 biochemical kinase assay (FP iMAP)
RECORDED_CONDITIONS: ATP concentration 500 µM; read-out: IC50 vs. AKT1
VALUE_TYPE: pIC50
Just the number, please; pIC50 means minus log10 of the concentration in mol/L.

Task: pIC50 for CCN1C(=O)COc2nc(-c3ccc([C@]4(N)C[C@@H](O)C4)cc3)c(-c3ccccc3)cc21 ?
Output: 6.80
